Attribution: ChEMBL document CHEMBL3526052

- assay-remarks: Tmax in CD-1 mouse brain at 0.1 mg/kg, iv administered as bolus dose in absence of ENT1 inhibitor NBMPR-P
- Type: ADME, organism-based
- Design: dose 0.1 mg/kg, route intravenous
endpoint-label: Tmax (min)
Answers are plain numbers, in min.

What does the record list as Tmax for `OC[C@H]1O[C@@H](n2cnc3c(N[C@@H]4CCOC4)ncnc32)[C@H](O)[C@@H]1O` ? 6.6

* * *

- experimental-system: Equilibrative nucleoside transporter 1 (Homo sapiens)
- Sequence (Q99808 whole entry): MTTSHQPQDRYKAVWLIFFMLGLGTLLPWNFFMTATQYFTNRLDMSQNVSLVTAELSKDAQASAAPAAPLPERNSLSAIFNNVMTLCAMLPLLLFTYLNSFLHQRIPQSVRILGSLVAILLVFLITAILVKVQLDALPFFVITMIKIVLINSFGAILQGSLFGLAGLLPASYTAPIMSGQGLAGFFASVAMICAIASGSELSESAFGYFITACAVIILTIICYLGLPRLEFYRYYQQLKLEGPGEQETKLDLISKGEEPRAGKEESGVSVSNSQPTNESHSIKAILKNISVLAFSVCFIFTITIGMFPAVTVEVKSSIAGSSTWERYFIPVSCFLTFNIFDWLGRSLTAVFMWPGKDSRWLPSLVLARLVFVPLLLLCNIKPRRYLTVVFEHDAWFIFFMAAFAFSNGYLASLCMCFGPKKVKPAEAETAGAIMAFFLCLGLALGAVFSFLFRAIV
- assay-remarks: Binding affinity to recombinant human ENT1 expressed in Saccharomyces cerevisiae assessed as inhibition of [3H]-uridine transport after 15 mins by scintillation counting analysis
endpoint-label: IC50 (µM)
Numbers only, in µM.

Consider the following items and state reported IC50 for each.
1. O=c1ccn([C@@H]2O[C@H](CO)[C@@H](O)[C@H]2O)c(=O)[nH]1
2. OC[C@H]1O[C@@H](n2cnc3c(N[C@@H]4CCOC4)ncnc32)[C@H](O)[C@@H]1O

[52, 12]

* * *

What IC50 was measured for each of the following?
- experimental-system: Solute carrier family 28 member 3 (Homo sapiens, UniProt Q9HAS3)
- Sequence (Q9HAS3 whole entry): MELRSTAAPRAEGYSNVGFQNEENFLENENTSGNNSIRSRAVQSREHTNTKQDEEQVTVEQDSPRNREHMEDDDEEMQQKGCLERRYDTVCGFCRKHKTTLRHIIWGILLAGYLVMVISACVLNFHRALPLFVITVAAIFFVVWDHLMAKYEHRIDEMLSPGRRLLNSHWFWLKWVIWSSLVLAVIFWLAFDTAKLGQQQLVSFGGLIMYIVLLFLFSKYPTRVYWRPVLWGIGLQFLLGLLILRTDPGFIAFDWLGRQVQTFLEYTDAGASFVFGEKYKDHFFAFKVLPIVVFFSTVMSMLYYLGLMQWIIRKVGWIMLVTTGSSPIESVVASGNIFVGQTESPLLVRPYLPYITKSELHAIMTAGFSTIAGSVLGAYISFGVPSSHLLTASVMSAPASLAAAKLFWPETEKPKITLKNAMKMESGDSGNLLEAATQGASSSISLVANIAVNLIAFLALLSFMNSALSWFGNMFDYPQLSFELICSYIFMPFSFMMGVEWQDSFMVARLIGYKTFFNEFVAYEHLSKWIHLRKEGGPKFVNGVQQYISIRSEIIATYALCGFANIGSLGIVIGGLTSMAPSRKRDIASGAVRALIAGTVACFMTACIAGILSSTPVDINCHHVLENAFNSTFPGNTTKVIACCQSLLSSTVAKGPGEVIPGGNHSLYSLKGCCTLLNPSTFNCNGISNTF
- assay-remarks: Binding affinity to recombinant human CNT3 expressed in Saccharomyces cerevisiae assessed as inhibition of [3H]-uridine transport after 5 mins by scintillation counting analysis
Numbers only, in µM.

Any idea what its IC50 is? The compound is `OC[C@H]1O[C@@H](n2cnc3c(N[C@@H]4CCOC4)ncnc32)[C@H](O)[C@@H]1O` 200

Would you kindly share the measured IC50 for `O=c1ccn([C@@H]2O[C@H](CO)[C@@H](O)[C@H]2O)c(=O)[nH]1` ? 5.4

Now consider a different compound.
Item `Nc1ncnc2c1ncn2[C@@H]1O[C@H](CO)[C@@H](O)[C@H]1O` has what recorded IC50? 3.3

* * *

- experimental-system: Sodium/nucleoside cotransporter 2 (Homo sapiens)
- Sequence (O43868 whole entry): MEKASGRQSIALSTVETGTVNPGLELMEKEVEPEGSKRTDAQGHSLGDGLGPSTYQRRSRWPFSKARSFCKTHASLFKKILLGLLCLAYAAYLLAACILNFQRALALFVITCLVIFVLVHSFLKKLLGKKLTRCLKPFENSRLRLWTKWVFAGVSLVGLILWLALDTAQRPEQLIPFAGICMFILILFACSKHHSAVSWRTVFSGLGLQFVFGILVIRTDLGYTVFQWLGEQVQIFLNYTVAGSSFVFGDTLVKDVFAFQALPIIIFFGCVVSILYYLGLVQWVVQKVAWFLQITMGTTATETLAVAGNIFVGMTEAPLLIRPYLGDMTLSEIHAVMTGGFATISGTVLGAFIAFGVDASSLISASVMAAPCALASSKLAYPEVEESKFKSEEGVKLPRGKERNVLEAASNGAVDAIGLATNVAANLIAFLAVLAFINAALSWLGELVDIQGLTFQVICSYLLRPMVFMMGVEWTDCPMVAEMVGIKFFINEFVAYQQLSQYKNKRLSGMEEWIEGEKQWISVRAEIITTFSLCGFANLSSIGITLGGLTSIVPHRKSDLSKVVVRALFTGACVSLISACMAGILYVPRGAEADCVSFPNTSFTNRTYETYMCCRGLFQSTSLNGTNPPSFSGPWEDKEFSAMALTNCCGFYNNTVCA
- assay-remarks: Binding affinity to recombinant human CNT2 expressed in Saccharomyces cerevisiae assessed as inhibition of [3H]-uridine transport after 15 mins by scintillation counting analysis
- run-conditions: read-out: Ki(app)
endpoint-label: Ki (µM)
Give bare numbers, in µM.

For each entry beneath this line, provide reported Ki.
1. O=c1ccn([C@@H]2O[C@H](CO)[C@@H](O)[C@H]2O)c(=O)[nH]1
2. OC[C@H]1O[C@@H](n2cnc3c(N[C@@H]4CCOC4)ncnc32)[C@H](O)[C@@H]1O
3. Nc1ncnc2c1ncn2[C@@H]1O[C@H](CO)[C@@H](O)[C@H]1O

31
231
5.3

* * *

- assay-remarks: Tmax in CD-1 mouse brain at 60 mg/kg, iv administered as bolus dose in absence of ENT1 inhibitor NBMPR-P
- Assay type: ADME, organism-based
- Set-up: dose 60 mg/kg, route intravenous
endpoint-label: Tmax (min)
Answers are plain numbers, in min.

Look at this molecule and give its reported Tmax. `Nc1nc(F)nc2c1ncn2[C@@H]1O[C@H](CO)[C@@H](O)[C@@H]1O` 52.8

* * *

- assay-remarks: Tmax in CD-1 mouse brain at 0.1 mg/kg, iv administered as bolus dose in presence of ENT1 inhibitor NBMPR-P
- Type: ADME, organism-based
- Design: dose 0.1 mg/kg, route intravenous
endpoint-label: Tmax (min)
Numbers only, in min.

Query (molecule): OC[C@H]1O[C@@H](n2cnc3c(N[C@@H]4CCOC4)ncnc32)[C@H](O)[C@@H]1O [TECADENOSON] ; field requested: Tmax 11.4

* * *

- assay-remarks: Tmax in CD-1 mouse brain at 60 mg/kg, iv administered as bolus dose in presence of ENT1 inhibitor NBMPR-P
- Type: ADME, organism-based
- Set-up: dose 60 mg/kg, route intravenous
endpoint-label: Tmax (h)
Answers are plain numbers, in h.

Please look up its Tmax: `Nc1nc(F)nc2c1ncn2[C@@H]1O[C@H](CO)[C@@H](O)[C@@H]1O` 1.63

* * *

- assay-remarks: AUC (0 to infinity) in CD-1 mouse at 60 mg/kg, iv administered as bolus dose in absence of ENT1 inhibitor NBMPR-P
- Assay type: ADME, organism-based
- Design: time infinity, dose 60 mg/kg, route intravenous
- run-conditions: plasma
endpoint-label: AUC(0-inf) (ng·h/mL)
Give bare numbers, in ng·h/mL.

What measured AUC(0-inf) goes with Nc1nc(F)nc2c1ncn2[C@@H]1O[C@H](CO)[C@@H](O)[C@@H]1O [FLUDARABINE] ? 39600

* * *

Consider the following compounds; for each one, report its pKi.
- experimental-system: Equilibrative nucleoside transporter 2 (Homo sapiens)
- Sequence (Q14542 whole entry): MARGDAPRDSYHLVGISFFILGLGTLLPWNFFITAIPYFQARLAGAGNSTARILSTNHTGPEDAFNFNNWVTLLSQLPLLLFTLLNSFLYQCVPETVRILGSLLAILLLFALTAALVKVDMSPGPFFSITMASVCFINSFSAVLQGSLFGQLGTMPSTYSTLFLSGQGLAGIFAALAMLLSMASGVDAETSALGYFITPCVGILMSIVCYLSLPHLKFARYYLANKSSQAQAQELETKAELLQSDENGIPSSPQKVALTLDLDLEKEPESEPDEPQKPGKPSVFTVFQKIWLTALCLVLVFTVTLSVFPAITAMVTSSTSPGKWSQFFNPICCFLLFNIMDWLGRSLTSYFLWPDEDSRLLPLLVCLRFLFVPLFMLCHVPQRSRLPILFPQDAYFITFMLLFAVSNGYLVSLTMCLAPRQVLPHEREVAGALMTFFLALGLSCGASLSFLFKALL
- assay-remarks: Binding affinity to recombinant human ENT2 expressed in Saccharomyces cerevisiae assessed as inhibition of [3H]-uridine transport after 15 mins by scintillation counting analysis
- run-conditions: read-out: Ki(app)
Numbers only, as −log10 of the molar value.

In the examples that follow, each entry is paired with its recorded pKi.
Would you mind telling me what pKi value was observed for OC[C@H]1O[C@@H](n2cnc3c(N[C@@H]4CCOC4)ncnc32)[C@H](O)[C@@H]1O [TECADENOSON] ? 3.72

What value of measured pKi is listed for O=c1ccn([C@@H]2O[C@H](CO)[C@@H](O)[C@H]2O)c(=O)[nH]1 [URIDINE] ? 3.62

Further cases:
Please look up its pKi: Nc1ncnc2c1ncn2[C@@H]1O[C@H](CO)[C@@H](O)[C@H]1O [ADENOSINE] 3.97
